experiment: Differential scanning calorimetry, main phase transition of vesicle membranes; type: physicochemical; conditions: main phase transition temperature of liposome membrane
RECORDED_METRIC: Tm (°C)
Report as a plain number; the unit °C is understood.

Check out these entries, answers already filled in.
{"MOLECULE_SMILES": "CCCCCCCCCCCCCCCC(=O)OC[C@H](COP(=O)([O-])OCC[N+](C)(C)C)OC(=O)CCCCCCCCCCCCCCC", "Tm [°C]": 41}
{"MOLECULE_SMILES": "CCCCCCCCCCCCCCCC(=O)NCC(CNC(=O)CCCCCCCCCCCCCCC)OP(=O)([O-])OCC[N+](C)(C)C", "Tm [°C]": 37}
{"MOLECULE_SMILES": "CCCCCCCCCCCCCCCCC(=O)NCC(CNC(=O)CCCCCCCCCCCCCCCC)OP(=O)([O-])OCC[N+](C)(C)C", "Tm [°C]": 45}

Q: Entry `CCCCCCCCCCCCCCCCCC(=O)NCC(CNC(=O)CCCCCCCCCCCCCCCCC)OP(=O)([O-])OCC[N+](C)(C)C` has what Tm?
Result: 52
